experimental_target: CK2α (Homo sapiens, UniProt P68400, K74A/K75A/K76A/R21S)
Construct: CK2α_KA (residues 2 -329) contained four; His6 (N, cleaved yes)
Sequence (P68400 2-329 R21S/K74A/K75A/K76A): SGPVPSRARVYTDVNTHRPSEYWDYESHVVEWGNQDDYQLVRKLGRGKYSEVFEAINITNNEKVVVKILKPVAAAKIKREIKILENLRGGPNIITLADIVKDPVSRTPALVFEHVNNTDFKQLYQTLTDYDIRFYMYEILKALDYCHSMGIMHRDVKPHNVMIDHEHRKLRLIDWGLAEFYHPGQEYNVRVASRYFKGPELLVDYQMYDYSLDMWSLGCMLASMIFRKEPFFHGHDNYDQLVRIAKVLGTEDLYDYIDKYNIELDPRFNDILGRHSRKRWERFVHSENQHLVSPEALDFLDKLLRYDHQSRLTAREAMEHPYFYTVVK
test_description: Isothermal titration calorimetry, direct binding to CK2α
settings: ITC, 25°C, CK2α_KA, Tris 200 mM, NaCl 300 mM, 10% DMSO, single site binding model
Where a SMILES comes first, the peptide text is derived from it. Bridges are numbered along the chain shown (N, C = ends). [ ]: non-standard residue; d: D form. Dap(N3) = [N-]=[N+]=NC[C@H](N)C(=O)O
Assign pKd to each entry below.
Answers are plain numbers, as −log10 of the molar value.

Some solved entries appear below for comparison.
compound: CC[C@H](C)[C@@H]1NC(=O)[C@H](CCCCN)NC(=O)[C@H](Cc2ccccc2)NC(=O)CNC(=O)[C@H](Cc2ccc(O)cc2)NC(=O)[C@H](CC(C)C)NC(=O)[C@H](CCCNC(=N)N)NC(=O)[C@@H](NC(=O)CNC(C)=O)CSSC[C@@H](C(=O)NCC(N)=O)NC(=O)CNC(=O)[C@H](Cc2c[nH]cn2)NC1=O [Pc, reference compound] (Ac-GCRLYGFKIHGCG-NH2; disulfide 2-12)
experimental_target: CK2α (Homo sapiens, UniProt P68400, K74A/K75A/K76A/R21S)
pKd: 6.00
//
compound: CC(=O)NCC(=O)N[C@H]1Cn2cc(nn2)-c2cc(C(=O)NCCCCCC(=O)NCCCCCC(=O)N[C@H](CCCNC(=N)N)C(=O)N[C@H](CCCNC(=N)N)C(=O)N[C@H](CCCNC(=N)N)C(N)=O)cc(c2)-c2cn(nn2)C[C@@H](C(=O)NCC(=O)NCC(N)=O)NC(=O)[C@H](Cc2c[nH]cn2)NC(=O)[C@H](Cc2c[nH]c3ccccc23)NC(=O)[C@H](CCCCN)NC(=O)[C@H](Cc2ccccc2)NC(=O)CNC(=O)[C@H](Cc2ccc(O)cc2)NC(=O)[C@H](CC(C)C)NC(=O)[C@H](CCCNC(=N)N)NC1=O
experimental_target: CK2α (Homo sapiens, UniProt P68400, K74A/K75A/K76A/R21S)
pKd: 6.70

# ---- query compound ----
Exercise: Fill blank: measured pKd of the compound CC(=O)NCC(=O)N[C@@H](CN=[N+]=[N-])C(=O)N[C@@H](CCCNC(=N)N)C(=O)N[C@@H](CC(C)C)C(=O)N[C@@H](Cc1ccc(O)cc1)C(=O)NCC(=O)N[C@@H](Cc1ccccc1)C(=O)N[C@@H](CCCCN)C(=O)N[C@@H](Cc1c[nH]c2ccccc12)C(=O)N[C@@H](Cc1c[nH]cn1)C(=O)N[C@@H](CN=[N+]=[N-])C(=O)NCC(=O)NCC(N)=O [P2] (Ac-G[Dap(N3)]RLYGFKWH[Dap(N3)]GG-NH2) is ____.
Key: 4.36
